// values below are log10 of IC50; system is p300 HAT domain (residues 1287-1666) (Homo sapiens (Human), UniProt Q09472)
Sequence (Q09472 1287-1666): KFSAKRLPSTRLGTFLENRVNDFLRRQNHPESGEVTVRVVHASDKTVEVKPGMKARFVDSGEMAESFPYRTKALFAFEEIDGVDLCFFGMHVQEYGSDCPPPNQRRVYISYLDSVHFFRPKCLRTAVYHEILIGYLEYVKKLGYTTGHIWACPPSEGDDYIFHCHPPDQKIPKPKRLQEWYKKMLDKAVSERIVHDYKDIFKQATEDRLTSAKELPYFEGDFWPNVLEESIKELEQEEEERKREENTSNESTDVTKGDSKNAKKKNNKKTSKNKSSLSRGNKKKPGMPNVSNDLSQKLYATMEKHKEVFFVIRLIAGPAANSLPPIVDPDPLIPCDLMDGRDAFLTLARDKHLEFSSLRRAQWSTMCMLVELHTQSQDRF
endpointLabel: log10 of IC50 (log10 of the value in nM)

[
  {
    "compound": "COc1cccc(C(NCCc2ccc(C#N)cc2)C(=O)Nc2ccc(-c3cnn(C)c3)cn2)c1 (single isomer, unassigned) [70 Isomer 2]",
    "tgt": "p300 HAT domain (residues 1287-1666) (Homo sapiens (Human), UniProt Q09472)",
    "log10 of IC50": 2.39
  },
  {
    "compound": "C[C@H](CNC(C(=O)Nc1ccc(-c2cnn(CC(=O)N(C)C)c2)cn1)c1cccc(F)c1)c1ccc(C#N)cc1 (single isomer, unassigned) [138 Isomer 2]",
    "tgt": "p300 HAT domain (residues 1287-1666) (Homo sapiens (Human), UniProt Q09472)",
    "log10 of IC50": 0.78
  },
  {
    "compound": "CC(CNC(C(=O)Nc1ccc(-c2cn[nH]c2)cn1)c1ccccc1)c1ccc(C#N)cc1 (single isomer, unassigned) [104 Isomer 1]",
    "tgt": "p300 HAT domain (residues 1287-1666) (Homo sapiens (Human), UniProt Q09472)",
    "log10 of IC50": 3.14
  },
  {
    "compound": "Cn1cc(-c2ccc(NC(=O)C(NCCn3cc(C#N)cn3)c3ccccc3)nc2)cn1 (single isomer, unassigned) [144 Isomer 2]",
    "tgt": "p300 HAT domain (residues 1287-1666) (Homo sapiens (Human), UniProt Q09472)",
    "log10 of IC50": 3.03
  },
  {
    "compound": "C[C@H](CNC(C(=O)Nc1ccc(-c2ccn(C)c(=O)c2)cn1)c1ccccc1)c1ccc(C#N)cc1 (single isomer, unassigned) [105 Isomer 2]",
    "tgt": "p300 HAT domain (residues 1287-1666) (Homo sapiens (Human), UniProt Q09472)",
    "log10 of IC50": 1.21
  },
  {
    "compound": "Cc1ncn(-c2ccc(NC(=O)C(NCCc3ccc(C#N)cc3)c3ccccc3)nc2)n1 (single isomer, unassigned) [73 Isomer 2]",
    "tgt": "p300 HAT domain (residues 1287-1666) (Homo sapiens (Human), UniProt Q09472)",
    "log10 of IC50": 2.29
  }
]
